In this section we review reported RP-LC retention time values for a set of molecules.
# assay_protocol: gradient 5% acetonitrile 3 min, to 50% in 2 min, to 85% in 15 min, held 3 min, 100 µL/min
# measurement_setup: column: Zorbax Extend-C18 2.1 x 50 mm; eluents: water / acetonitrile, 0.1% formic acid
Just the number in s, nothing appended.

Use the examples below as a reference point.
{"columns": ["molecule", "RP-LC retention time [s]"],
 "data": [
  ["O=C(NCc1csc(C2CCCN(C(=O)c3ccc(F)cc3F)C2)n1)C1CCC1 (stereo not given)", 699],
  ["O=C1Nc2ccccc2SC1C(=O)N1CCC(C(=O)N2CCN(C3CCCCC3)CC2)CC1 (stereo not given)", 590],
  ["O=C(Nc1cnc(N2CCCC2)nc1)c1ccc(Br)o1", 732]
]}

[Q] Look up RP-LC retention time of CC(CC(C#N)(c1ccccc1)c1ccccc1)N1CCCCC1 (stereo not given) and report it.
[A] 780

[Q] Look up RP-LC retention time of `Cc1ccccc1NC(=O)CSc1ccc(-n2nccc2C)nn1` and report it.
[A] 869

[Q] Look up RP-LC retention time of Cc1ccc(S(=O)(=O)N2CCCC2c2nc(-c3ccc(Cl)cc3)no2)cc1F (stereo not given) and report it.
[A] 1230

[Q] Look up RP-LC retention time of `Cn1c(C(=O)NCCCN2CCCC2=O)cc2c(-c3cccs3)nn(-c3ccccc3)c21` and report it.
[A] 831

[Q] Look up RP-LC retention time of `Cc1ccc(F)c(-n2nnc(C(=O)O)c2-c2cccnc2)c1` and report it.
[A] 642

[Q] Look up RP-LC retention time of `COc1cc2c(cc1OC)C(=O)Cc1ccc3c(c1CN(C)CC2)OCO3` and report it.
[A] 672

[Q] Look up RP-LC retention time of `O=C(NCc1ccco1)c1ccc2c(c1)N(Cc1ccccc1)C(=O)CO2` and report it.
[A] 942

[Q] Look up RP-LC retention time of `Cc1cccc2sc(NC(=O)Cc3csc(Nc4ccc(Cl)cn4)n3)nc12` and report it.
[A] 1140

[Q] Look up RP-LC retention time of `Cc1c(S(=O)(=O)N2CCC(C)CC2)c(C)n(C)c1-c1nnc(C2CCC2)o1` and report it.
[A] 1100

[Q] Look up RP-LC retention time of `COCCN1C(=O)[C@H]2CN(Cc3ccccc3)C[C@H]2C1=O` and report it.
[A] 572

[Q] Look up RP-LC retention time of CCCN1C(=O)c2c(C(=O)NCc3ccccc3)ncn2CC1(C)C(=O)NCCC(C)C (stereo not given) and report it.
[A] 817

[Q] Look up RP-LC retention time of `CCCCCN(CC(=O)N1CCNCC1)C(=O)c1cccc(Br)c1` and report it.
[A] 664

[Q] Look up RP-LC retention time of `CCOc1ccc(S(=O)(=O)Nc2ccc(-c3cn4ccc(C)nc4n3)cc2)cc1` and report it.
[A] 661

[Q] Look up RP-LC retention time of `Cc1ccc(S(=O)(=O)N(C)CC2CCOCC2)c(C)c1` and report it.
[A] 896

* * *

# assay_protocol: gradient 5% acetonitrile 3 min, to 50% in 2 min, to 85% in 15 min, held 3 min, 100 µL/min
# measurement_setup: column: Zorbax Extend-C18 2.1 x 50 mm; eluents: water / acetonitrile, 0.1% formic acid
observable: RP-LC retention time (s)
Just the number in s, nothing appended.

Use the examples below as a reference point.
{"columns": ["compound", "RP-LC retention time (s)"],
 "data": [
  ["CC(C)CCNC(=O)C1CCCN(c2ccnc(-c3ccc(F)cc3)n2)C1 (centres undefined)", 690],
  ["COc1cccc(CC(=O)NCC(=O)Nc2nc3ccccc3n2C)c1", 645],
  ["O=C(Nc1ccc2c(c1)OCCO2)N1CCC(N2CCN(Cc3ccc(F)cc3)C2=O)CC1", 773]
]}

Continue with the next compound.
[Q] Look up RP-LC retention time of `CCN1C(=O)COc2ccc(-c3noc(CNS(=O)(=O)c4ccccc4)n3)cc21` and report it.
[A] 842
